measured-on: Vhr1 (UniProt P40522)
Sequence: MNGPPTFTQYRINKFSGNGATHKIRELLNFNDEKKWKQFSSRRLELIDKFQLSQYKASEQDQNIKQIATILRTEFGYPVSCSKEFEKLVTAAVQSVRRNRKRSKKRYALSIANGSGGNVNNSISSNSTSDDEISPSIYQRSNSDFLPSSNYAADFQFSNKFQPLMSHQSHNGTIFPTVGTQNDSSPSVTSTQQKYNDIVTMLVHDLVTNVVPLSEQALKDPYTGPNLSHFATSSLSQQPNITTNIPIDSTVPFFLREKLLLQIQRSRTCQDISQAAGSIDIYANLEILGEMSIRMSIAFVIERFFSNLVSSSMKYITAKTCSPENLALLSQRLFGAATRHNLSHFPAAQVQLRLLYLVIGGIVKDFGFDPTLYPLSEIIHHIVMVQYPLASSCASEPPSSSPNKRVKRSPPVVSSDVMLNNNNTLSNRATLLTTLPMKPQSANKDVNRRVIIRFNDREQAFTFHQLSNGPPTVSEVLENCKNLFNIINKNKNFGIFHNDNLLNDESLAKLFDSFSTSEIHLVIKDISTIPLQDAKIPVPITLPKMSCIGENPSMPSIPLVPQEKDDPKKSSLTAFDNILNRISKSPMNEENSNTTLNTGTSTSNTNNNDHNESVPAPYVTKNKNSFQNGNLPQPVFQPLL
assay-remarks: PBM E-score (8-mer binding enrichment) (E-score (-0.5 to 0.5)); higher = stronger / more preferred TF binding
condition-summary: protein concentration: 200 nM; construct: GST-full length
In all, about 33,000 sequences were measured (“E-score (-0.5 to 0.5)”: median about -0.012, highest 2% from about 0.27 on). The entries come from a sample that favours the highest values as a whole.
Label No if PBM E-score falls below 0.1; label Yes in every other case.

Known results for sequences:
Assess whether reported PBM E-score for "ACCGCCAC" sits at 0.1 or higher. No

Try this sequence too: "ACTCTACA" No

Also "ATCCCCGC" ? Yes

Field entry: "CCCGCGGA" No

Another sequence: "GTATAGAC" Yes

Next:
hey, is PBM E-score for this one >= 0.1? "GCCGCCAC" No

How about this sequence: "GCCGCGGC" Yes

Please answer likewise for "AAGCCTCG" No

Input "CTCCCCGA" No

And for "ATGTGGTG" ? Yes

Also need "CCCGCCAC" , thanks. Yes
